# TESTED ON: T1, G4R1/RHAU (G4 Resolvase 1) (human, UniProt Q9H2U1 1-1008)
# T1 sequence: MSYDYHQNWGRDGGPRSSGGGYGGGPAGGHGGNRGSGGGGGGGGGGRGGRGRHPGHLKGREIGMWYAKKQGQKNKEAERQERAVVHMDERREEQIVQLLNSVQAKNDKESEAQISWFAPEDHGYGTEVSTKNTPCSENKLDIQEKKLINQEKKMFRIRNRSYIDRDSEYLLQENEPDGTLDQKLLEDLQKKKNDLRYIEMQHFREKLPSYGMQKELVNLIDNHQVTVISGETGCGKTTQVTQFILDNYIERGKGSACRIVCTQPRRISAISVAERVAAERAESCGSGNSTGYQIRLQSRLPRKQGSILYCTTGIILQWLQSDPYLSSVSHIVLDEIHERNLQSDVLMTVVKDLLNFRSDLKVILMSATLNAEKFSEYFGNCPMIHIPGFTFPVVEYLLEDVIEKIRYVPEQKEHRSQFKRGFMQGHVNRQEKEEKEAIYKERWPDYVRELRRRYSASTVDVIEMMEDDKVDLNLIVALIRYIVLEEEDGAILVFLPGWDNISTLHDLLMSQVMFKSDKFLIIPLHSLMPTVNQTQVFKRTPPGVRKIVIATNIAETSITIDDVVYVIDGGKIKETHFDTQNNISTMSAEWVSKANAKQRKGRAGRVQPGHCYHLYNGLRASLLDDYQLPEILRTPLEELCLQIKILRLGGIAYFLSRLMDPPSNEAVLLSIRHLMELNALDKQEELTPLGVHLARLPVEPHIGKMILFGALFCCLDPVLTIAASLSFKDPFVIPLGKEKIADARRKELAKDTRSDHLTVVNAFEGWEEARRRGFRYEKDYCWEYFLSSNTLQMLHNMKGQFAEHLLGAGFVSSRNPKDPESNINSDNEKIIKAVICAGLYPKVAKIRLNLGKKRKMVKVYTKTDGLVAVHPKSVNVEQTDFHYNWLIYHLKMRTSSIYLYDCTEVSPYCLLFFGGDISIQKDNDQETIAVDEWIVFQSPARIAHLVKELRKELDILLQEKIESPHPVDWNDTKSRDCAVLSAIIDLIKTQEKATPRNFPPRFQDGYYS
# ASSAY PROCEDURE: EMSA
pKd: −log10 of the molar value.
METRIC NAME: pKd

In: Note pKd for the binder shown: AGAAGAGAGAGAGTGAGAGAGACGAGAGAGGCCGAGAAGAGAGAGAG (ssDNA) [Scrambled Zic1 DNA 47-mer]
Out: < 9.52

Sourced from paper PMC3167620
